# credit: paper PMC10397247

Molecular target: T1, O9-bN
T1 chain: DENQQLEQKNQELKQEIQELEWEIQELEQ
Experiment: two-hybrid library CCNG1;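 also: natural log of median RNA to DNA barcode read ratio; higher means stronger binding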
endpointLabel: interaction score
Form field (numeric): enter value without unit.

Please review the entries below; each comes with its answer.
[[record]]
binder = "DKIQQLKQEIQELEQKNQELKWKNQELKQ [O4-bN]"
measurement = -0.542

[[record]]
binder = "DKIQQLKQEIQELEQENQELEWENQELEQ [O11-bN]"
measurement = -0.813

[[record]]
binder = "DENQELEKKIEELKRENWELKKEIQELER [4H1369-bH]"
measurement = -3.43


API: the following record is the query input.
What the record says about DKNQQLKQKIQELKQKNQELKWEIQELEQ [O13-bN] : interaction score is -1.61
